Entry source: PubChem BioAssay AID1996

Conditions: buffer; pH 7.4; 200.0 µM
measured_metric: solubility kinetic (µg/mL)
Report only the number, with the unit µg/mL understood.

# example entries with known answers
| compound | solubility kinetic (µg/mL) |
| --- | --- |
| CCc1sc(C(=O)NCc2ccco2)cc1Br | 25.9 |
| CSCCC(NC(=O)c1ccco1)C(=O)NCCc1ccc(Cl)cc1 (stereo unspecified) | 19.6 |
| CCC(C)NS(=O)(=O)c1ccc(NC(=O)c2cccs2)cc1 (stereo unspecified) | 2.6 |

Next compound, solubility kinetic to be filled in.
solubility kinetic for Cc1ccc2[nH]c(=O)cc(C(=O)OCC(=O)c3ccc(F)cc3)c2c1 is 1.5
